Recorded z-score, one value per entry.
- Protocol Details: splicing luciferase reporter signal modulators, primary screen, spliceosome inhibition project, cell-based, HEK293, splice +/- reporter (AID 1101);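 note: HEK293 cells carrying a splicing-competent luciferase reporter gene; test concentration not given here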
- Stated Conditions: luminescence, 24 h, higher = more signal, called active from +8 up or from −8 down
Lab note: write the figure by itself, no unit.

COC(=O)Cn1c(C(=O)N2CCCC2)cc2c1C[C@H]1CN(C(=O)c3ccccc3)[C@@](Cc3ccc(OC)cc3)(C(=O)OC)[C@@H]21
-1.76

For this compound ( CO[C@H]1COC(=O)CC=C[C@@H](C)COC(=O)[C@@H](C)NC(=O)CC=C[C@@H]1C ), measured z-score is -2.81

Just so you know, measured z-score for CO[C@H]1COC(=O)[C@H](C)NC(=O)CC=C[C@@H](C)[C@H](NS(=O)(=O)c2ccc(C)cc2)COC(=O)CC=C[C@@H]1C came out at -0.489

Query O=C(NCC(F)(F)F)[C@@H]1c2ccccc2C(=O)N(Cc2ccccc2Cl)[C@H]1c1ccc(CO)cc1 yields z-score of 0.632
